# Test system: HSkMC (human skeletal muscle cells)
# Method: cytotoxicity call (relative viability < 0.9)
# Applied conditions: 10 µM
Among all 39,000 compounds or so, about 1,500 (3.8%) were called active. The sample holds actives, similar compounds and a random draw of the others, so the mix is not that of the screen.
Measurement type: cytotoxicity call

// known answers, use as guide
>>> reported("C[C@H]1CN([C@@H](C)CO)C(=O)c2cc(NC(=O)Cc3cn(C)c4ccccc34)ccc2O[C@H]1CN(C)Cc1ccc(C(=O)Nc2ccccc2N)cc1")
"inactive"
>>> reported("COc1ccccc1-c1cccc(-c2nc(C(=O)Nc3nccs3)cc3c2[C@H](CCO)N(C(=O)CC2CC2)C3)c1")
"inactive"
>>> reported("C[C@H](CO)N1C[C@H](C)[C@H](CN(C)Cc2ccncc2)OCCCC[C@H](C)Oc2ccc(NC(=O)NC3CCCCC3)cc2C1=O")
"inactive"
>>> reported("C[C@@H]1CN([C@H](C)CO)C(=O)c2cc(NS(=O)(=O)c3ccc(Cl)cc3)ccc2O[C@@H](C)CCCCO[C@H]1CN(C)C(=O)C1CCCCC1")
"inactive"
>>> reported("C[C@@H]1CCCCO[C@@H](CN(C)C(=O)C2CCCCC2)[C@H](C)CN([C@@H](C)CO)C(=O)c2cc(NS(=O)(=O)c3ccc(Cl)cc3)ccc2O1")
"inactive"

Turning to the following molecule.
Qu. Record request: cytotoxicity call value, item `COc1ccc2c3c([nH]c2c1)[C@H](CO)N(C[C@]13CN(C)C1)C(=O)CN1CCOCC1`
Ans. inactive
